Field: EC50. Provide a value for each of the compounds that follow.
- target_or_test_system: Luciferin 4-monooxygenase (Photinus pyralis, UniProt P08659)
- Sequence (P08659 whole entry): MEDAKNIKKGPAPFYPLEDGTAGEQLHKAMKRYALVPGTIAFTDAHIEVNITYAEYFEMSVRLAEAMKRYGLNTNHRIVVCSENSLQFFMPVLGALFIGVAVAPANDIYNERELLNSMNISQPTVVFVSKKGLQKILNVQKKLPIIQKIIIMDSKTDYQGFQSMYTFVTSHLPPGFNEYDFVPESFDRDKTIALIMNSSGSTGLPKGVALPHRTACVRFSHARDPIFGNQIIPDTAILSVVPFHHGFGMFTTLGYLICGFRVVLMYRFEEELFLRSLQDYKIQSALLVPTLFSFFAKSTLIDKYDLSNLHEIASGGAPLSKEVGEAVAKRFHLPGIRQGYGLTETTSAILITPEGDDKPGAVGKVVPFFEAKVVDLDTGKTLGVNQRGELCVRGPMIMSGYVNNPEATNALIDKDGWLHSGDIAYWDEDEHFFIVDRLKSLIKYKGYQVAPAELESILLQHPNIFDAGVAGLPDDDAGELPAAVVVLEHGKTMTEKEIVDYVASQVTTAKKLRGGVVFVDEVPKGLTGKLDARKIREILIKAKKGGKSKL
- assay_protocol: firefly luciferase enzyme inhibitors, dose response, biochemical, luminescence (AID 1891)
The source made the active and inactive calls.

Enquiry: Report EC50 for CN1CCC(NC(=O)Nc2cccc(C(F)(F)F)c2)CC1
Return: > 112 µM (not active)

Enquiry: Give the reported EC50 for this compound. Cc1[nH]cnc1C(=O)N/N=C/c1c(Cl)cccc1Cl
Return: 4.22 µM (active)

Enquiry: State, in one line, measured EC50 of CC1CCCCN1S(=O)(=O)c1ccc(S(=O)(=O)N(CC(=O)Nc2ccccc2)Cc2cccs2)cc1 (stereo not drawn)
Return: > 112 µM (not active)

---

- target_or_test_system: Cysteine protease ATG4B (Homo sapiens);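 also: Fluorescence-based dose-response confirmation assay measuring inhibition of ATG4B activity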
- Sequence (Q9Y4P1 whole entry): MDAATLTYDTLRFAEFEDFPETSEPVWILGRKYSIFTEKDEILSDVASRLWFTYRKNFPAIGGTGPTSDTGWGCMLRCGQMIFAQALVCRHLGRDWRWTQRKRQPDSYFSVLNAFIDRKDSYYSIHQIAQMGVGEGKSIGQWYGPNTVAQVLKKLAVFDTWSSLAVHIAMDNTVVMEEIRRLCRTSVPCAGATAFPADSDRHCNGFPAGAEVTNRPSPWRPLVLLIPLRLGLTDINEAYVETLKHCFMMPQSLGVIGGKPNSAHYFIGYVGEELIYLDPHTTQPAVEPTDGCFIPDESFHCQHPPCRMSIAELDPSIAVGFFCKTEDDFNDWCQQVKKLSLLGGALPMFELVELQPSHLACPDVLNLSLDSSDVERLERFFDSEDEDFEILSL
- Type: functional
Calls of active or inactive are those of the source.
The reply should be one of these categories: 1 = active, 0 = inactive

Enquiry: What is the recorded call for this compound in the test? C=CCn1c(-c2oc3nc(-c4ccccc4)cc(-c4ccccc4)c3c2N)n[nH]c1=S
Return: 0

Enquiry: Field: outcome | Entry: CN(C)S(=O)(=O)c1ccc2[nH]cc(/C=C/c3nc4ccccc4c(=O)n3-c3ccccc3)c2c1
Return: 1

Enquiry: Which result was noted for this compound in the test: Cc1cccc(C)c1OCc1nc2ccccc2c(=O)n1/N=C/c1ccc(OCC(=O)O)cc1
Return: 1

Enquiry: Dear all, I need the recorded test outcome for O=C(Nc1nc2c(cc3c4c(cccc42)CC3)s1)c1ccccc1Cl , thank you.
Return: 0

Enquiry: For Cc1ccc(S(=O)(=O)Nc2ccccc2/C=N/c2nc3ccccc3n2C(C)C)cc1 , which call appears in the assay record?
Return: 1

---

- target_or_test_system: Aminopeptidase N (Plasmodium falciparum FcB1/Columbia)
- Sequence (O96935 whole entry): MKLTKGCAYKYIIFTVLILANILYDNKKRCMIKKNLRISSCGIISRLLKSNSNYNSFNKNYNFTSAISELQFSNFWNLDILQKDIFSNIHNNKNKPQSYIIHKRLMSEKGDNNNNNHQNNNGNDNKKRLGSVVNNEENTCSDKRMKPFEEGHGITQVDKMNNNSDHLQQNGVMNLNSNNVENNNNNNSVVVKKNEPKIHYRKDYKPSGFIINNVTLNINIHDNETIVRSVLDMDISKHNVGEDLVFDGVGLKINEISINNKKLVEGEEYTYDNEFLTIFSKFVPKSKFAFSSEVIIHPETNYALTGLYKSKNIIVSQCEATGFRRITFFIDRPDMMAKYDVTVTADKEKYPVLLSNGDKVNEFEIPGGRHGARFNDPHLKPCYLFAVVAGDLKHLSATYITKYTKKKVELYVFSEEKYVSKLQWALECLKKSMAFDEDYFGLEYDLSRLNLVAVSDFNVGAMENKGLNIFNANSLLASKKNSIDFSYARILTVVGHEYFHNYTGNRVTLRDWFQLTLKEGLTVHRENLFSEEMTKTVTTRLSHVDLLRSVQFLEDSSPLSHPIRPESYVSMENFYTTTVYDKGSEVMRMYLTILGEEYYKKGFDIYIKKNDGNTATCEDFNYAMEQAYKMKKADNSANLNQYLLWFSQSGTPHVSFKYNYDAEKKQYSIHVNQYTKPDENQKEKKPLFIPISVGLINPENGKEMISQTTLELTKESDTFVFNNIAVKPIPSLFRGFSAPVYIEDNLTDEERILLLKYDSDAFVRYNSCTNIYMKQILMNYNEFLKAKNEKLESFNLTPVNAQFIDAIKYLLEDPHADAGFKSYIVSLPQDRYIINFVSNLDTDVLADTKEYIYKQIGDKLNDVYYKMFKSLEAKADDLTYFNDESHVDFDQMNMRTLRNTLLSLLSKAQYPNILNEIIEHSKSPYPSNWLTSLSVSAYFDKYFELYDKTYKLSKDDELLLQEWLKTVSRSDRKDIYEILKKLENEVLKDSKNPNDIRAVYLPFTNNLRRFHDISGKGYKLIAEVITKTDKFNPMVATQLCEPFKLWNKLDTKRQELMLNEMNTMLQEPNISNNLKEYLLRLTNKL
- assay_protocol: P. falciparum M1AAP inhibitors, biochemical, fluorogenic H-Leu-NHMec substrate, 1536-well (AID 1445)
- Parameters: species or system Plasmodium falciparum 3D7, 3D7
The source made the active and inactive calls.
quantity_name: IC50

Enquiry: Please indicate IC50 recorded for O=C(N/N=C/c1cc(Cl)ccc1O)c1ccccc1Br
Return: 30.8 µM (active)

Enquiry: Give reported IC50 value for COc1ccccc1/C=C1\SC(=S)N(C(C(=O)O)c2ccccc2)C1=O (stereo unspecified)
Return: 26 µM (active)

Enquiry: For the compound Cc1cccc(C)c1OCc1nc2ccccc2c(=O)n1/N=C/c1ccc(OCC(=O)O)cc1 , give its reported IC50.
Return: < 1 µM (active)

Enquiry: Item CC1=CN2C(=N)/C(=C/c3cc(Cl)c(O)c(Cl)c3)C(=O)N=C2S1 : provide IC50
Return: 42 µM (active)

Enquiry: Hello, please tell me recorded IC50 for this one: CC(C)n1c(=N)c(C(=O)NCCc2ccccc2)cc2c(=O)n3ccccc3nc21
Return: 58.6 µM (active)

Enquiry: Give a short answer stating reported IC50 for COc1cc(/C=N/NC(=O)[C@H](Cc2c[nH]c3ccccc23)NC(=O)OCC(C)C)cc([N+](=O)[O-])c1O .
Return: 12.2 µM (active)

---

- assay_protocol: control 3'UTR Renilla luciferase suppression, dose response, counter-screen for Shn3 inhibitor project, cell-based, Clone20-Shn3RL, cherry-picked (AID 624133)
- Type: functional
Active and inactive are the calls of the source.
quantity_name: AC50

Enquiry: Give me measured AC50, please, for this molecule: COc1ccccc1-c1cc(C(F)(F)F)nc(S(=O)(=O)CCCC(=O)N2CCCCC2C)n1 (centres undefined)
Return: 8.84 µM (active)

Enquiry: Name the recorded AC50 of the molecule listed here: CCCCCCCN(c1ccccc1)[C@@H]1C[C@H]2CCCC(=O)N3CC[C@@H](C1)[C@@H]23
Return: 4.54 µM (active)

Enquiry: Supply AC50 value. Item: Cn1nc(C(C)(C)C)cc1C(=O)N1CCCCC1c1cc(C(=O)Nc2ccc(F)c(Cl)c2)no1 (centres undefined)
Return: 5.06 µM (active)

Enquiry: Return value of AC50 for input CCOC(=O)Oc1c(OC)cc(C(=O)O[C@@H]2C[C@@H]3CN4CCc5c([nH]c6cc(OC)ccc56)[C@H]4C[C@@H]3[C@H](C(=O)OC)[C@H]2OC)cc1OC [SYROSINGOPINE] , no commentary.
Return: 22.4 µM (active)

---

- target_or_test_system: DNA dC->dU-editing enzyme APOBEC-3A (Homo sapiens, UniProt P31941)
- Sequence (P31941 whole entry): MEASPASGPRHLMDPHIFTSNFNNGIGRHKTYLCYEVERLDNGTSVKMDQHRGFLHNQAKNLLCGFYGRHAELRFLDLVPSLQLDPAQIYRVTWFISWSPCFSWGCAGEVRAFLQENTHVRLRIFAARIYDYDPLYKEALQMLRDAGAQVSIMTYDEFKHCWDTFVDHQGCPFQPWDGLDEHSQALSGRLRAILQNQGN
- assay_protocol: Dose Response confirmation of small molecule APOBEC3A DNA Deaminase Inhibitors via a fluorescence-based single-stranded DNA deaminase assay. [Related pubchem assays (depositor defined):AID493011, AID493024]
- Assay type: functional
Active and inactive are the calls of the source.
For each entry below, report its IC50 value.

Enquiry: Provide IC50 value for the following molecule: COc1ccc(CSCC(=O)N/N=C/c2ccc(OCC(=O)N3CCCCC3)cc2)cc1
Return: 5.86 µM (active)

Enquiry: Let me know recorded IC50 for CC[N+]1(CC)CC2CCC(C)(C1)C2(C)C (centres undefined) , thanks.
Return: 2.28 µM (active)

Enquiry: Recall and state the measured IC50 for CC1(C)Oc2ccc3ccc(=O)oc3c2-c2c[nH]nc21 .
Return: 4.45 µM (active)

Enquiry: For the molecule CCSCCNC(=O)c1cc(-n2cnnc2)ccc1Cl , give its measured IC50 value.
Return: 4.2 µM (active)

---

Task for the reader: assign each of the following compounds its reported EC50.
- assay_protocol: cytotoxicity toward NIH3T3 fibroblasts, dose response, counter-screen, cell-based, ATP luminescence, mouse fibroblasts (AID 2010);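 also: cells exposed to compound for about 90 hours before reading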
- Assay type: functional
Calls of active or inactive are those of the source.

Enquiry: Output EC50 of O=C(CNC(=O)c1ccccc1)N/N=C/c1ccc([N+](=O)[O-])s1
Return: 12.7 µM (active)

Enquiry: Name the recorded EC50 of the item O=C(Nc1ccc(N2CCCC2)c(Cl)c1)c1ccc2c(c1)OCCO2 in your answer.
Return: > 30 µM (not active)

Enquiry: Return EC50 (reported value) for this compound: Cc1c(NC(=O)C(C)OC(=O)c2ccc([N+](=O)[O-])s2)c(=O)n(-c2ccccc2)n1C (configuration not stated)
Return: > 60 µM (not active)

Enquiry: # return recorded EC50 for entry CCN1CCN(Cc2ccc(NC(=O)c3ccc(C)c(NC(=O)c4cc(-c5ccc(Br)cc5)[nH]n4)c3)cc2C(F)(F)F)CC1
Return: > 30 µM (not active)

Enquiry: Determine from records and report EC50 for Cc1ccc(CNC(=O)CCC2CCCN(Cc3c(C)nn(C(C)C)c3C)C2)o1 (configuration not stated)
Return: > 60 µM (not active)

Enquiry: Identify measured EC50 associated with Cc1ccc(C#CC[N+]2(CC#Cc3ccc(C)cc3)CCCCC2)cc1
Return: > 60 µM (inconclusive)

Enquiry: Provide one value: measured EC50 of COCCCNCCOc1ccc(C(C)(C)c2ccccc2)cc1
Return: 7.83 µM (active)

Enquiry: Note EC50 for the compound shown: CC(C)Cc1ccc(CN2CCCC(NC(=O)c3cnc4ccccn4c3=O)C2)cc1 (configuration not stated)
Return: 26.7 µM (active)

Enquiry: State, in one line, measured EC50 of CCOC(=O)C1=C(Nc2ccccc2)CC(C)(O)C(C(=O)OCC)C1c1ccccc1 (configuration not stated)
Return: > 60 µM (not active)

Enquiry: Provide only the value of recorded EC50 for CCc1ccc(OCC(=O)NC(N=C(S)Nc2ccccc2C)C(Cl)(Cl)Cl)cc1 (configuration not stated)
Return: > 60 µM (not active)

Enquiry: Provide only the value of recorded EC50 for O=C(c1ccccc1)c1c[nH]c(C(=O)NNc2ccccc2)c1
Return: 7.46 µM (active)

Enquiry: For COc1ccc(CCNC(=O)C2CCCN(Cc3nc(-c4cccc(Cl)c4)oc3C)C2)cc1OC (configuration not stated) , write its EC50.
Return: > 60 µM (not active)

---

- target_or_test_system: Calpain-2 catalytic subunit (Sus scrofa, UniProt P43367)
- Sequence (P43367 whole entry): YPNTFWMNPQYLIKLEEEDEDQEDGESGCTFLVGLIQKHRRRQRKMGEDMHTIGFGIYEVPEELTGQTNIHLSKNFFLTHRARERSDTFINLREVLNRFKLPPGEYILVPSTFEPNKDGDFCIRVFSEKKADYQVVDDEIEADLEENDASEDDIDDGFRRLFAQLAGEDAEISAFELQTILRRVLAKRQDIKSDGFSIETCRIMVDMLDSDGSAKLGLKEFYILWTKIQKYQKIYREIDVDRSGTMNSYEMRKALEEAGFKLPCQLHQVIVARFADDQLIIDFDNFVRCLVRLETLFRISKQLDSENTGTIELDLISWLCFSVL
- assay_protocol: pig calpain II inhibitor potency, dose response, biochemical, fluorogenic peptide substrate (AID 1420)
- Format: functional
quantity_name: IC50

Enquiry: Enter recorded IC50 with Calpain-2 catalytic subunit (Sus scrofa, UniProt P43367) for CC(NC(=O)CCCCCN1C(=O)c2ccccc2C1=O)c1ccc2c(c1)CCCC2 (stereo not given) here.
Return: 10.7 µM (not active)

Enquiry: Answer with IC50 of CCc1nnc(NC(=O)[C@@H](NC(=O)c2cc(OC)cc(OC)c2)C(C)C)s1 measured for Calpain-2 catalytic subunit (Sus scrofa, UniProt P43367).
Return: 49.9 µM (not active)

Enquiry: Write IC50 of CCOc1cc(/C=C(/C#N)c2ccc(Cl)cc2)cc(Cl)c1OCC(=O)O ; system used: Calpain-2 catalytic subunit (Sus scrofa, UniProt P43367)
Return: 3.06 µM (not active)

Enquiry: Recall the reported IC50 of Cc1nc(SCC(=O)NC(C)c2ccccc2)c2oc3ccccc3c2n1 (stereo not given) when tested on Calpain-2 catalytic subunit (Sus scrofa, UniProt P43367).
Return: < 0.4 µM (not active)

Enquiry: Find IC50 for CCNC(=O)NCc1c(C)c(C)n(Cc2ccccc2)c1-n1cccc1 on Calpain-2 catalytic subunit (Sus scrofa, UniProt P43367) and write it down.
Return: 8.86 µM (not active)
